The reported numbers originate from the supplement of paper PMC11451515.

system: SEM cells; assay: cell viability relative to DMSO control; higher = less cytotoxic; details: RPMI 5 mM glucose + 10% FBS; 48 h; 0.000781 µM
Exam item: assign t to entries whose cell viability is below 80% and f to entries at or above 80%. Note that a value of exactly 80% receives f.

INSERT INTO results (molecule, classification) VALUES
  ('CO[C@H]1/C=C/O[C@@]2(C)Oc3c(C)c(O)c4c(O)c(c(/C=N/N5CCN(C)CC5)c(O)c4c3C2=O)NC(=O)/C(C)=C\C=C\[C@H](C)[C@H](O)[C@@H](C)[C@@H](O)[C@@H](C)[C@H](OC(C)=O)[C@@H]1C', 't'),
  ('C=CCc1cc(OC)c(O)c(C(=O)NCCO)c1', 'f'),
  ('OC(CCN1CCCCC1)(C2CC\3CC2\C=C3)C4=CC=CC=C4 (stereo unspecified)', 'f'),
  ('COCCCOc1ccnc(C[S+]([O-])c2nc3ccccc3[nH]2)c1C (stereo unspecified)', 't'),
  ('O=C(O)CSCC(=O)NC1CCSC1=O (stereo unspecified)', 't'),
  ('C[C@H](NC(=O)Cc1cc(F)cc(F)c1)C(=O)N[C@@H]1C(=O)N(C)c2ccccc2-c2ccccc21', 'f'),
  ('CN(C)/[N+]([O-])=N/Oc1cc(ON[N+](=O)N2CCN(C(=O)c3cc(Cc4n[nH]c(=O)c5ccccc45)ccc3F)CC2)c([N+](=O)[O-])cc1[N+](=O)[O-]', 'f'),
  ('COc1cc(Nc2ncc(F)c(Nc3ccc4c(n3)N(COP(=O)(O)O)C(=O)C(C)(C)O4)n2)cc(OC)c1OC', 'f');

## Input Just wondering, is cell viability of CC(C)(C)Cn1c(N)nc2ccc(-c3[nH]c(C(C)(C)C)nc3-c3ccc(F)cc3)nc21 below 80%?
## Output f

## Input Just wondering, is cell viability of O=C(O)CCNc1cc(N2CCc3ccccc3CC2)nc(-c2ccccn2)n1 below 80%?
## Output f

----------
# maps each entry to its cell viability
system: NOMO1; test: cell viability relative to DMSO control; higher = less cytotoxic; conditions: RPMI 5 mM glucose + 10% FBS; 48 h; 0.000781 µM
Value expressed in %; do not type the unit.

Solved entries:
INSERT INTO measurements (molecule, units_of_measure, value_measured) VALUES
  ('COc1ccc2c(OCc3nnc4ccc(-c5ccccc5)nn34)ccnc2c1', '%', 113),
  ('COc1nccc(-c2c(-c3ccc(F)cc3)ncn2C2CCC(O)CC2)n1 (stereo not given)', '%', 107);

# ---- query molecule ----
## Input Short answer please: cell viability, NOMO1, entry C=C[C@H]1CN2CCC1C[C@@H]2[C@@H](O)c1ccnc2ccccc12 (stereo not given in full)
## Output 90.3

----------
test system: SEM cells; assay: cell viability relative to DMSO control; higher = less cytotoxic; conditions: RPMI 5 mM glucose + 10% dialyzed FBS; 48 h; 0.569 µM
quantity: cell viability (%)
Value expressed in %; do not type the unit.

Solved entries:
INSERT INTO measurements (molecule, units_of_measure, value_measured) VALUES
  ('O=[S+]([O-])(/N=C/c1c(O)ccc2ccccc12)c1cccs1', '%', 115),
  ('C=C[C@H]1CN2CCC1C[C@@H]2[C@@H](O)c1ccnc2ccccc12 (stereo partly specified)', '%', 110),
  ('NC1CCC(Nc2nc(Nc3ccc(C(=O)N4CCCCC4)cc3)c3ncn(-c4cccc(F)c4)c3n2)CC1 (stereo unspecified)', '%', 64.6);

## Input I'd like to know its cell viability. The molecule in question is NCCCCCC(=O)O
## Output 101

## Input I'd like to know its cell viability. The molecule in question is O=C(/C=C/C=C/c1ccc2c(c1)OCO2)N1CCCCC1
## Output 150

## Input I'd like to know its cell viability. The molecule in question is Cn1cnc(-c2cc3nccc(Oc4ccc(NC(=S)NC(=O)Cc5ccccc5)cc4F)c3s2)c1
## Output 35.3
